Biological target: T1, human FolR3 ECD-AcTev-Fcknob-Avi tag + Fc hole, biotinylated monomeric Fc fusion (human, UniProt P0DOX5 223-449 = IgG part)
T1 construct: also called huFolR3; FolR3-Fc
Assay: SPR ProteOn, Fab analyte;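 note: recombinant antigens immobilized, purified Fab two-fold dilutions injected in parallel channels, 200 s association and 600 s dissociation, buffer-only channel as in-line reference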

BINDER	binding result
16A3 Fab (Fab, V domains shown) VH: QVQLVQSGAEVKKPGASVKVSCKASGYTFTSYYMHWVRQAPGQGLEWMGIINPSGGSTSYAQKFQGRVTMTRDTSTSTVYMELSSLRSEDTAVYYCARNYYAGVTPFDYWGQGTLVTVSS VL: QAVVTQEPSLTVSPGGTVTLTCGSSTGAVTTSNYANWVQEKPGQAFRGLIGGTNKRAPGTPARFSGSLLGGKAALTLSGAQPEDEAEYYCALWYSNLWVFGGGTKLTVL	no binding
15B6 Fab (Fab, V domains shown) VH: QVQLVQSGAEVKKPGASVKVSCKASGYTFTSYYMHWVRQAPGQGLEWMGIINPSGGSTSYAQKFQGRVTMTRDTSTSTVYMELSSLRSEDTAVYYCARNYYIGIVPFDYWGQGTLVTVSS VL: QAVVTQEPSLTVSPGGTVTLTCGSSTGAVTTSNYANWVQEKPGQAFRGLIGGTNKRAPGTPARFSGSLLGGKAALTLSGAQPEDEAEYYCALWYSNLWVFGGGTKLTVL	no binding
15H7 Fab (Fab, V domains shown) VH: QVQLVQSGAEVKKPGASVKVSCKASGYTFTSYYMHWVRQAPGQGLEWMGIINPSGGSTSYAQKFQGRVTMTRDTSTSTVYMELSSLRSEDTAVYYCARNYYLFSTSFDYWGQGTLVTVSS VL: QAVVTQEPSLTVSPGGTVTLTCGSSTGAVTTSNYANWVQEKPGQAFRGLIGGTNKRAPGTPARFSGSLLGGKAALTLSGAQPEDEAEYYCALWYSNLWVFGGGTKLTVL	no binding
